Every entry's value here was drawn from ChEMBL document CHEMBL1201862.

- System: NCI-H522
- METHOD: NCI tumour cell line growth inhibition, 48 h
Calls of active or inactive are those of the source. Rule as the data show it: active = GI50 up to about 1.1 µM and inactive = higher.
Reply using exactly one outcome from TRUE for active, FALSE for inactive

Prompt line: For O=C1NC(=O)C2(CCC(O)C2)c2cc[n+]([O-])cc21 (stereo unspecified) , which call appears in the assay record?
Response line: FALSE

Prompt line: For CCOC(=O)/C(C[C@H]1OC(C)(C)O[C@@H]1[C@H]1COC(C)(C)O1)=N/O , which call appears in the assay record?
Response line: FALSE

Prompt line: For CC(O)=C1C(=O)CCC1=O , which call appears in the assay record?
Response line: FALSE
